I'd appreciate it if you could supply inhibition values for the items below.
Test system: MDCK-II
Assay: Inhibition of P-gp expressed in MDCK2-MDR1 cells at 25 uM by calcein AM accumulation assay relative to LSN 335984
Assay type: cell-based

>>> df
                            compound_smiles  endpoint_value
0  CC(C)(C)c1cc(-c2ccc(C(=O)N3CCCCC3)s2)cc(C(C)(C)C)[s+]1.F[P-](F)(F)(F)(F)F            < 7%

List reported inhibition for each of these compounds:
1. CCN(CC)C(=O)c1ccccc1-c1cc(C(C)(C)C)[s+]c(C(C)(C)C)c1
2. CCN(CC)C(=O)c1ccccc1-c1cc(-c2ccc(N(C)C)cc2)[s+]c(C(C)(C)C)c1
3. CC(C)(C)c1cc(-c2ccc(C(=O)O)s2)cc(C(C)(C)C)[s+]1
4. CC(C)(C)c1cc(-c2ccccc2)cc(C(C)(C)C)[s+]1
5. CN(C)c1ccc(-c2cc(-c3ccc(C(=S)N4CCCCC4)s3)cc(C(C)(C)C)[s+]2)cc1.[Cl-]

Ans.
1: 0%; 2: 13%; 3: 0%; 4: 1%; 5: 74%

* * *

Biological target: MRP1 (Multidrug resistance-associated protein 1) (Homo sapiens, UniProt P33527)
Sequence (P33527 whole entry): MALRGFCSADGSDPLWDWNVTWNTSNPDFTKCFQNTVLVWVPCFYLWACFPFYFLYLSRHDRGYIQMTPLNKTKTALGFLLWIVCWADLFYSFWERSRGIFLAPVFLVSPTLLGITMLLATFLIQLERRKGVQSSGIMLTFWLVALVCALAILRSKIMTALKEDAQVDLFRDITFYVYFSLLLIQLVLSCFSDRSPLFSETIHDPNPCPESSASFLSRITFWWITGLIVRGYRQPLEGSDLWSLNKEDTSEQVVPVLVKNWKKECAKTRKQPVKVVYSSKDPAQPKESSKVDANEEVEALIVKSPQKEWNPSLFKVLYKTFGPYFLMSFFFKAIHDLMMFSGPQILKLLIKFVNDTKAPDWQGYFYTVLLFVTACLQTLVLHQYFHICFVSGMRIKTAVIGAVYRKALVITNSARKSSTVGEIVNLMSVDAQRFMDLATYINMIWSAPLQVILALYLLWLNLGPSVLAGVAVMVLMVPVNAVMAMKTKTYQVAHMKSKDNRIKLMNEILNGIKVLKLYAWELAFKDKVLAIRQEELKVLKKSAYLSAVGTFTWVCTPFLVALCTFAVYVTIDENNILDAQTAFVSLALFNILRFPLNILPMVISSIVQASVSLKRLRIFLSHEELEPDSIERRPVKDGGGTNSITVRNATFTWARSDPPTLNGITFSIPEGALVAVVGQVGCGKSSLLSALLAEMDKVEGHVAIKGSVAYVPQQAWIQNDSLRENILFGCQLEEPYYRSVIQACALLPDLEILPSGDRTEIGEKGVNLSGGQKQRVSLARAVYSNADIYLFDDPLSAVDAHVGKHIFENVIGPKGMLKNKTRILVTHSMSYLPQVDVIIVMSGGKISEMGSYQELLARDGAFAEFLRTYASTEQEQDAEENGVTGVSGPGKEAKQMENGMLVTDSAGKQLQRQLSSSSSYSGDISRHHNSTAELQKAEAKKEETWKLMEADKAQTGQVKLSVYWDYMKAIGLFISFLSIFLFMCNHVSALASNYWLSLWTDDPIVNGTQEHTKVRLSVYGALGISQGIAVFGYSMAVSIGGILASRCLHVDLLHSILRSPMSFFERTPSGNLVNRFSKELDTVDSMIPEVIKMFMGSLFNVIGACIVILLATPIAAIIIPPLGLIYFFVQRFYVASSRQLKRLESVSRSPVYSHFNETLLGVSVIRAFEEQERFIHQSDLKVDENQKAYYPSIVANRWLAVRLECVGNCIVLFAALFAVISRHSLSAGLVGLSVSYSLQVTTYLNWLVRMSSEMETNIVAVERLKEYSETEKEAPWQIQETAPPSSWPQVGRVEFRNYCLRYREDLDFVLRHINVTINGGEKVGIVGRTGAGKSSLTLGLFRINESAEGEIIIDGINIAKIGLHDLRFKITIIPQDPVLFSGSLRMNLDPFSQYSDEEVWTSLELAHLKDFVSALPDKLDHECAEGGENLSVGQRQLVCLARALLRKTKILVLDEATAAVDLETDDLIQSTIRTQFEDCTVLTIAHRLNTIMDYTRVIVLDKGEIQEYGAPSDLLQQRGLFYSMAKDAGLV
Test: Inhibition of human MRP1 mediated uptake of [3H]E2-17betaG in HEK cell membrane vesicles at 30 uM by liquid scintillation counting relative to control
Assay type: cell membranes, HEK293
Conditions: HEK cell membrane vesicles with human MRP1, probe [3H]E2-17betaG
Rule: fulfilled for inhibition at 30 µM not less than 90%, not fulfilled for anything less.

                            compound_smiles  group_label
0  CN(C)c1ccc(-c2cc(-c3ccc(N(C)C)cc3)[se+]c(C(C)(C)C)c2)cc1    fulfilled
1  CN(C)c1ccc(-c2cc(-c3ccc(C(=S)N4CCCCC4)s3)cc(C(C)(C)C)[s+]2)cc1.[Cl-]    fulfilled
2  Nc1ccc(-c2cc(-c3ccc(N4CCOCC4)cc3)cc(-c3ccccc3)[te+]2)cc1    fulfilled

Qu. hey, is inhibition at 30 µM for this one >= 90%? CC(C)(C)c1cc(-c2ccc(C(=S)N3CCCCC3)s2)cc(C(C)(C)C)[s+]1.F[P-](F)(F)(F)(F)F
Ans. not fulfilled

Qu. Decide: inhibition at 30 µM of Cc1cc(C(C)(C)C)[o+]c(C(C)(C)C)c1 >= 90%?
Ans. not fulfilled

Qu. Is inhibition at 30 µM at least 90%? Consider CCN(CC)C(=O)c1ccccc1-c1cc(-c2ccc(N(C)C)cc2)[s+]c(C(C)(C)C)c1
Ans. not fulfilled

Qu. Form field: inhibition at 30 µM at least 90%? Entry: CN(C)c1ccc(-c2cc(-c3ccc(N(C)C)cc3)[te+]c(C(C)(C)C)c2)cc1
Ans. fulfilled

Qu. Exam item: decide whether the reported inhibition at 30 µM for CN(C)c1ccc(-c2cc(-c3ccc(C(=O)O)s3)cc(C(C)(C)C)[s+]2)cc1 is at least 90%.
Ans. fulfilled

Qu. Reported inhibition at 30 µM reaches at least 90% for CC(C)(C)c1cc(-c2ccccc2)cc(C(C)(C)C)[s+]1 ?
Ans. not fulfilled

Qu. Is the recorded value of inhibition at 30 µM equal to or greater than 90% for this molecule? CCN(CC)C(=O)c1ccccc1-c1cc(C(C)(C)C)[te+]c(C(C)(C)C)c1
Ans. not fulfilled

* * *

Molecular target: ATP-dependent translocase ABCB1 (Homo sapiens)
Assay: Inhibition of VER-stimulated human His10-tagged P-gp ATPase activity expressed in BHK cells after 15 mins
For each of the compounds below, state its IC50.
One number for each entry, in µM.

>>> df
                            compound_smiles  endpoint_value
0  CC(C)(C)c1cc(-c2ccc(C(=O)O)s2)cc(C(C)(C)C)[te+]1             162

# next compound below
Qu. // returns reported IC50 for input CC(C)(C)c1cc(-c2ccc(C(=O)O)s2)cc(C(C)(C)C)[se+]1
Ans. 111

* * *

So I've got a bunch of compounds here, and I need their fold induction at 0.5 h values.
Target: P-gp (ABCB1) (Homo sapiens, UniProt P08183)
Sequence (P08183 whole entry): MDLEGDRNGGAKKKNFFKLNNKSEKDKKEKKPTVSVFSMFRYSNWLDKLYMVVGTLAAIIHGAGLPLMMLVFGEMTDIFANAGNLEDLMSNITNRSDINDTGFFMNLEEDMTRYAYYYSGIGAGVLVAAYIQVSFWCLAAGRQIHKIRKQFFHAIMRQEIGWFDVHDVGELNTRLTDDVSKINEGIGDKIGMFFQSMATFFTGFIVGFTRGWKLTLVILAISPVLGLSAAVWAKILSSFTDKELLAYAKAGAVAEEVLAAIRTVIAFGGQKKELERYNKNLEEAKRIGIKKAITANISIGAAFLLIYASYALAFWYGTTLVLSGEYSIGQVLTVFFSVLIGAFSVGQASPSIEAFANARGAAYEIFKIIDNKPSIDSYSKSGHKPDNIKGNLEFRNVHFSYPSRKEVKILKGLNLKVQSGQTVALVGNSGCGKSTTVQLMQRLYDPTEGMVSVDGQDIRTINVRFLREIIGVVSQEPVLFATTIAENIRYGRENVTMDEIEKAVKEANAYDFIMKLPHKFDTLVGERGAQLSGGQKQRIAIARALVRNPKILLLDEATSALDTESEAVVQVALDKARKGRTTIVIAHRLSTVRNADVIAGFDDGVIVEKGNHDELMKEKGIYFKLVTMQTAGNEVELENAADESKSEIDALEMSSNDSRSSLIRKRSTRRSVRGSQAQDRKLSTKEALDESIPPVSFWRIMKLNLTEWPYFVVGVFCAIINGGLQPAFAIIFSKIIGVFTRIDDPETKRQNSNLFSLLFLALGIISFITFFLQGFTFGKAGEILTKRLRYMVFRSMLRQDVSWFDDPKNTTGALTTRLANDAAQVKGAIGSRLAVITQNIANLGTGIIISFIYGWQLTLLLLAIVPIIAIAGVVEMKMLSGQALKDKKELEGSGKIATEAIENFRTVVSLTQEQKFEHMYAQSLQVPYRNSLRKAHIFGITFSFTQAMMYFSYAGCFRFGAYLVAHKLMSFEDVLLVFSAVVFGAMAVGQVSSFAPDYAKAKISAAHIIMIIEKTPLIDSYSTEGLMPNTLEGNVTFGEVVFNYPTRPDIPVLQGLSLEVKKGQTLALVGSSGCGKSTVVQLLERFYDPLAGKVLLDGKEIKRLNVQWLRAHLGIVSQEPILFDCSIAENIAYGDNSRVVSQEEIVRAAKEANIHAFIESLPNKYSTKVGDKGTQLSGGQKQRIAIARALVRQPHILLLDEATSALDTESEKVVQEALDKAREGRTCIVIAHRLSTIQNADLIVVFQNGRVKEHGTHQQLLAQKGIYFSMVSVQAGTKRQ
Experiment: Induction of ATPase activity of human His10-tagged P-gp expressed in BHK cells assessed as inorganic phosphate release after 30 mins relative to control
Assay type: cell-based
Settings: human His10-tagged P-gp expressed in BHK cells, read-out: FC
Give bare numbers.

Example results:
>>> print(df.to_string())
                            compound_smiles  endpoint_value
0  CC(C)(C)c1cc(-c2ccc(C(=S)N3CCCCC3)s2)cc(C(C)(C)C)[se+]1             4.3
1  CC(C)(C)c1cc(-c2ccc(C(=O)O)s2)cc(C(C)(C)C)[s+]1             3.5
2  CC(C)(C)c1cc(-c2ccccc2)cc(C(C)(C)C)[s+]1             2.9
3  CC(C)(C)c1cc(-c2ccccc2)cc(C(C)(C)C)[te+]1             1.5
4  CCN(CC)C(=O)c1ccccc1-c1cc(C(C)(C)C)[te+]c(C(C)(C)C)c1             6.9
5  Cc1cc(-c2ccc(N(C)C)cc2)cc(-c2ccc(N(C)C)cc2)[se+]1             1.4
6  CC(C)(C)c1cc(-c2ccc(C(=O)N3CCCCC3)s2)cc(C(C)(C)C)[s+]1.F[P-](F)(F)(F)(F)F             5.5

Qu. Look at this compound and give its reported fold induction at 0.5 h. CN(C)c1ccc(-c2cc(-c3ccc(C(=O)N4CCCCC4)s3)cc(C(C)(C)C)[s+]2)cc1.F[P-](F)(F)(F)(F)F
Ans. 6.6

* * *

Experiment: Normalized ratio of the compound assessed as ratio of PBA/AB in absence of LSN 335984 to ratio of PBA/AB in presence of LSN 335984 in MDCK2-MDR1 cells at 5 uM after 1 hr
Format: ADME, cell-based, Canis lupus familiaris
Conditions: dog, mdck-mdr1, 1 h
Reported Property: Ratio
Numbers only.

Some solved entries appear below for comparison.
                            compound_smiles  reported_property  endpoint_value
0  CN(C)c1ccc(-c2cc(-c3ccc(C(=S)N4CCCCC4)s3)cc(-c3ccc(N(C)C)cc3)[s+]2)cc1.[Cl-]              Ratio               8
1  CN(C)c1ccc(-c2cc(-c3ccc(C(=O)N4CCCCC4)s3)cc(-c3ccc(N(C)C)cc3)[s+]2)cc1.F[P-](F)(F)(F)(F)F              Ratio              79
2  CC(C)(C)c1cc(-c2ccc(C(=S)N3CCCCC3)s2)cc(C(C)(C)C)[s+]1.[Cl-]              Ratio              15
3  CN(C)c1ccc(-c2cc(-c3ccc(C(=S)N4CCCCC4)s3)cc(C(C)(C)C)[s+]2)cc1.[Cl-]              Ratio             705
4  CN(C)c1ccc(-c2cc(-c3ccc(C(=O)N4CCCCC4)s3)cc(C(C)(C)C)[s+]2)cc1.F[P-](F)(F)(F)(F)F              Ratio               4

Please look at the following molecule next.
Qu. Quick check: Ratio of CC(C)(C)c1cc(-c2ccc(C(=O)N3CCCCC3)s2)cc(C(C)(C)C)[s+]1.F[P-](F)(F)(F)(F)F ?
Ans. 10

* * *

Target: P-gp (ABCB1) (Homo sapiens)
Assay: Induction of ATPase activity of human His10-tagged P-gp expressed in BHK cells assessed as inorganic phosphate release after 30 mins relative to control
Assay type: cell-based
Conditions: human His10-tagged P-gp expressed in BHK cells, read-out: FC
// No strictly below 6 in fold induction at 0.5 h; Yes otherwise

Would you please look over these solved cases?
>>> df
                            compound_smiles  group_label
0  CN(C)c1ccc(-c2cc(-c3ccc(N(C)C)cc3)[se+]c(C(C)(C)C)c2)cc1          Yes
1  CN(C)c1ccc(-c2cc(-c3ccccc3)cc(C(C)(C)C)[s+]2)cc1          Yes
2  Nc1ccc(-c2cc(-c3ccc(N4CCOCC4)cc3)cc(-c3ccccc3)[te+]2)cc1           No
3  CC(C)(C)c1cc(-c2ccccc2)cc(C(C)(C)C)[se+]1           No

Qu. Test whether the molecule CCN(CC)C(=O)c1ccccc1-c1cc(-c2ccc(N(C)C)cc2)[s+]c(C(C)(C)C)c1 records fold induction at 0.5 h of 6 or higher.
Ans. Yes
